experiment: Absorption spectra of absorption membrane before and after high temperature/high humidity evaluation (Test Example 2); format: physicochemical; details: 85° C., 85% relative humidity, 120 hours
observable: Δλ = 100×(λf−λi)λi (%)
Respond numerically; units are % and should not be typed.

Can you look up the measured Δλ = 100×(λf−λi)λi of CC1(C)C(/C=C/C=C/C=C/C=C2\N(C[Si](C)(C)C)c3ccc4ccccc4c3C2(C)C)=[N+](C[Si](C)(C)C)c2ccc3ccccc3c21 [Embodiment 2] for me?
0

Can you look up the measured Δλ = 100×(λf−λi)λi of CCCCN1/C(=C\C=C2/CCC(/C=C/C3=[N+](CCCC)c4ccccc4C3(C)C)=C2Cl)C(C)(C)c2ccccc21 [Comparative Example 3] for me?
−12

Can you look up the measured Δλ = 100×(λf−λi)λi of CCCCN1\C(=C/C=C/C=C/C=C/C2=[N+](CCCC)c3ccc4ccccc4c3C2(C)C)C(C)(C)c2c1ccc1ccccc21 [Comparative Example 2] for me?
13

Can you look up the measured Δλ = 100×(λf−λi)λi of CCCCN1\C(=C/C=C/C=C/C=C/C2=[N+](CCCC)c3ccccc3C2(C)C)C(C)(C)c2ccccc21 [Comparative Example 1] for me?
−13

Can you look up the measured Δλ = 100×(λf−λi)λi of CC1(C)C(/C=C/C=C/C=C/C=C2\N(C[Si](C)(C)C)c3ccccc3C2(C)C)=[N+](C[Si](C)(C)C)c2ccccc21 [Embodiment 1] for me?
0

Can you look up the measured Δλ = 100×(λf−λi)λi of CC1(C)C(/C=C/C2=C(Cl)C(=C/C=C3\N(C[Si](C)(C)C)c4ccccc4C3(C)C)/CC2)=[N+](C[Si](C)(C)C)c2ccccc21 [Embodiment 3] for me?
0

====

I'd appreciate it if you could supply Td 5% values for the items below.
assay: Pyrolysis temperature (Td 5%) analysis by TGA; type: physicochemical; settings: 25-800° C., 10° C./min, N2
Respond numerically; units are °C and should not be typed.

Can you look up the measured Td 5% of CC1(C)C(/C=C/C2=C(Cl)C(=C/C=C3\N(C[Si](C)(C)C)c4ccccc4C3(C)C)/CC2)=[N+](C[Si](C)(C)C)c2ccccc21 [Embodiment 3] for me?
216

Can you look up the measured Td 5% of CC1(C)C(/C=C/C=C/C=C/C=C2\N(C[Si](C)(C)C)c3ccc4ccccc4c3C2(C)C)=[N+](C[Si](C)(C)C)c2ccc3ccccc3c21 [Embodiment 2] for me?
230

Can you look up the measured Td 5% of CC1(C)C(/C=C/C=C/C=C/C=C2\N(C[Si](C)(C)C)c3ccccc3C2(C)C)=[N+](C[Si](C)(C)C)c2ccccc21 [Embodiment 1] for me?
231

====

experiment: Transmittance of absorption membrane before and after reliability evaluation (Test Example 1); assay type: physicochemical; conditions: change before/after 85° C., 85% RH, 120 hours
I'd appreciate it if you could supply 480~560 nm Tave, Δ values for the items below.
Don't forget the unit after the value.

Can you look up the measured 480~560 nm Tave, Δ of CC1(C)C(/C=C/C2=C(Cl)C(=C/C=C3\N(C[Si](C)(C)C)c4ccccc4C3(C)C)/CC2)=[N+](C[Si](C)(C)C)c2ccccc21 for me?
0. %

Can you look up the measured 480~560 nm Tave, Δ of CCCCN1/C(=C\C=C2/CCC(/C=C/C3=[N+](CCCC)c4ccccc4C3(C)C)=C2Cl)C(C)(C)c2ccccc21 for me?
−1.3%

Can you look up the measured 480~560 nm Tave, Δ of CC1(C)C(/C=C/C=C/C=C/C=C2\N(C[Si](C)(C)C)c3ccccc3C2(C)C)=[N+](C[Si](C)(C)C)c2ccccc21 for me?
0%

Can you look up the measured 480~560 nm Tave, Δ of CCCCN1\C(=C/C=C/C=C/C=C/C2=[N+](CCCC)c3ccccc3C2(C)C)C(C)(C)c2ccccc21 for me?
−0.3%

Can you look up the measured 480~560 nm Tave, Δ of CCCCN1\C(=C/C=C/C=C/C=C/C2=[N+](CCCC)c3ccc4ccccc4c3C2(C)C)C(C)(C)c2c1ccc1ccccc21 for me?
−0.3%

Can you look up the measured 480~560 nm Tave, Δ of CC1(C)C(/C=C/C=C/C=C/C=C2\N(C[Si](C)(C)C)c3ccc4ccccc4c3C2(C)C)=[N+](C[Si](C)(C)C)c2ccc3ccccc3c21 for me?
0%

====

Experiment: Transmittance of absorption membrane before and after reliability evaluation (Test Example 1)
Type: physicochemical
Details: silicone resin membrane; after 85° C., 85% RH, 120 hours
Description: The transmittance spectrum was measured using a spectrophotometer (Manufacturer: Perkinelmer, Product Name: Lambda 750 Spectrophotometer) on a specimen obtained by cutting the measurement object (e.g., an absorption membrane) so that the width and height were 10 mm and 10 mm, respectively. The transmittance spectrum was measured for each wavelength according to the equipment manual. […]
observable: 480~560 nm Tave, A (%)
Respond numerically; units are % and should not be typed.

Can you look up the measured 480~560 nm Tave, A of CC1(C)C(/C=C/C2=C(Cl)C(=C/C=C3\N(C[Si](C)(C)C)c4ccccc4C3(C)C)/CC2)=[N+](C[Si](C)(C)C)c2ccccc21 for me?
91

Can you look up the measured 480~560 nm Tave, A of CC1(C)C(/C=C/C=C/C=C/C=C2\N(C[Si](C)(C)C)c3ccccc3C2(C)C)=[N+](C[Si](C)(C)C)c2ccccc21 for me?
91.4

Can you look up the measured 480~560 nm Tave, A of CCCCN1\C(=C/C=C/C=C/C=C/C2=[N+](CCCC)c3ccc4ccccc4c3C2(C)C)C(C)(C)c2c1ccc1ccccc21 for me?
90.9

Can you look up the measured 480~560 nm Tave, A of CCCCN1\C(=C/C=C/C=C/C=C/C2=[N+](CCCC)c3ccccc3C2(C)C)C(C)(C)c2ccccc21 for me?
89.8

Can you look up the measured 480~560 nm Tave, A of CC1(C)C(/C=C/C=C/C=C/C=C2\N(C[Si](C)(C)C)c3ccc4ccccc4c3C2(C)C)=[N+](C[Si](C)(C)C)c2ccc3ccccc3c21 for me?
91.3

Can you look up the measured 480~560 nm Tave, A of CCCCN1/C(=C\C=C2/CCC(/C=C/C3=[N+](CCCC)c4ccccc4C3(C)C)=C2Cl)C(C)(C)c2ccccc21 for me?
89.2

====

experiment: Absorption maximum measurement; format: physicochemical; details: chloroform, about 10^-5 M
I'd appreciate it if you could supply Maximum Absorption Wavelength values for the items below.

Can you look up the measured Maximum Absorption Wavelength of CC1(C)C(/C=C/C=C/C=C/C=C2\N(C[Si](C)(C)C)c3ccc4ccccc4c3C2(C)C)=[N+](C[Si](C)(C)C)c2ccc3ccccc3c21 [Embodiment 2] for me?
803 nm

Can you look up the measured Maximum Absorption Wavelength of CC1(C)C(/C=C/C2=C(Cl)C(=C/C=C3\N(C[Si](C)(C)C)c4ccccc4C3(C)C)/CC2)=[N+](C[Si](C)(C)C)c2ccccc21 [Embodiment 3] for me?
817 nm

Can you look up the measured Maximum Absorption Wavelength of CC1(C)C(/C=C/C=C/C=C/C=C2\N(C[Si](C)(C)C)c3ccccc3C2(C)C)=[N+](C[Si](C)(C)C)c2ccccc21 [Embodiment 1] for me?
763 nm

====

experiment: Transmittance of absorption membrane before and after reliability evaluation (Test Example 1); format: physicochemical; details: change before/after 85° C., 85% RH, 120 hours
observable: 466~480 nm Tave, Δ (%)
Respond numerically; units are % and should not be typed.

Can you look up the measured 466~480 nm Tave, Δ of CCCCN1\C(=C/C=C/C=C/C=C/C2=[N+](CCCC)c3ccc4ccccc4c3C2(C)C)C(C)(C)c2c1ccc1ccccc21 for me?
0.1

Can you look up the measured 466~480 nm Tave, Δ of CCCCN1/C(=C\C=C2/CCC(/C=C/C3=[N+](CCCC)c4ccccc4C3(C)C)=C2Cl)C(C)(C)c2ccccc21 for me?
−0.9

Can you look up the measured 466~480 nm Tave, Δ of CC1(C)C(/C=C/C=C/C=C/C=C2\N(C[Si](C)(C)C)c3ccccc3C2(C)C)=[N+](C[Si](C)(C)C)c2ccccc21 for me?
0

Can you look up the measured 466~480 nm Tave, Δ of CC1(C)C(/C=C/C2=C(Cl)C(=C/C=C3\N(C[Si](C)(C)C)c4ccccc4C3(C)C)/CC2)=[N+](C[Si](C)(C)C)c2ccccc21 for me?
0.1

Can you look up the measured 466~480 nm Tave, Δ of CC1(C)C(/C=C/C=C/C=C/C=C2\N(C[Si](C)(C)C)c3ccc4ccccc4c3C2(C)C)=[N+](C[Si](C)(C)C)c2ccc3ccccc3c21 for me?
0

Can you look up the measured 466~480 nm Tave, Δ of CCCCN1\C(=C/C=C/C=C/C=C/C2=[N+](CCCC)c3ccccc3C2(C)C)C(C)(C)c2ccccc21 for me?
−0.6
